Origin of the recorded values: ChEMBL document CHEMBL5532672

experimentalSystem: Potassium voltage-gated channel subfamily B member 1 (Homo sapiens)
Sequence (Q14721 whole entry): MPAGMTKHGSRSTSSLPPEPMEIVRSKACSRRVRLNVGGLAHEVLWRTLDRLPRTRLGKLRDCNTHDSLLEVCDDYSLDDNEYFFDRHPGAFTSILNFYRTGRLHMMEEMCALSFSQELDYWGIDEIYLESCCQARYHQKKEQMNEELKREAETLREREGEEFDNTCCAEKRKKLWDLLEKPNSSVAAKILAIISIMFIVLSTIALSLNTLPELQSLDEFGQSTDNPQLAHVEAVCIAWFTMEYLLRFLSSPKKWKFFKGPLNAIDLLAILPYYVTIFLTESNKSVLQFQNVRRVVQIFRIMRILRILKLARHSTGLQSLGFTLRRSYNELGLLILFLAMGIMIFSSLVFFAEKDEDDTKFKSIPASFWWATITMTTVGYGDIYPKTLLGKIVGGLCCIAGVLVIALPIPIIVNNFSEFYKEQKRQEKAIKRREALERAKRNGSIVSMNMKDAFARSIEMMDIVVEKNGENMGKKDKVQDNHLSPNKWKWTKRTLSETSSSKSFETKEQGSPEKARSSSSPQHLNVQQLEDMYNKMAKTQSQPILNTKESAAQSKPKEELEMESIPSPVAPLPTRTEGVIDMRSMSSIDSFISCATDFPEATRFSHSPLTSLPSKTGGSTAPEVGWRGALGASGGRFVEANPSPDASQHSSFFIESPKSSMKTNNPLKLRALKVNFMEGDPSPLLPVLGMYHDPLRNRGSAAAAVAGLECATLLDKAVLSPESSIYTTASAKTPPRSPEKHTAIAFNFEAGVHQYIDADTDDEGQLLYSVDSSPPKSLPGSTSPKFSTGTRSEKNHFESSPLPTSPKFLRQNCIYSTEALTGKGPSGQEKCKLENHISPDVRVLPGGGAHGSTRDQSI
assay: Inhibition of human KV2.1 stably expressed in HEK293 cells by whole cell patch-clamp assay
pIC50: −log10 of the molar value.
quantityKind: pIC50

Some solved cases for reference:
> print(dat)
                                   molecule  quantitykind  testvalue
1  CCOc1ccc(NC(=O)C(C)C)cc1C(=O)NC(C)c1cccc(F)n1 (stereo not given)         pIC50       6.49
2  CCOc1ccc(NC(=O)C(C)C)cc1C(=O)NC(C)c1ccnc(OC)c1 (stereo not given)         pIC50       6.37

A = CCOc1ccc(NC(=O)C(C)C)cc1C(=O)NC(C)c1cccc(OC)c1 (stereo not given)
B = CCOc1ccc(NC(=O)C(C)C)cc1C(=O)NC(C)c1cccc(-c2ncccn2)c1 (stereo not given)
-- ask Looking only at measured pIC50, which entry is lower, A or B ? When you have decided, please share the label of that item.
-- reply B
(B: 6.18, A: 6.43)

----------
experimentalSystem: Voltage-gated inwardly rectifying potassium channel KCNH2 (Homo sapiens, UniProt Q12809)
Sequence (Q12809 whole entry): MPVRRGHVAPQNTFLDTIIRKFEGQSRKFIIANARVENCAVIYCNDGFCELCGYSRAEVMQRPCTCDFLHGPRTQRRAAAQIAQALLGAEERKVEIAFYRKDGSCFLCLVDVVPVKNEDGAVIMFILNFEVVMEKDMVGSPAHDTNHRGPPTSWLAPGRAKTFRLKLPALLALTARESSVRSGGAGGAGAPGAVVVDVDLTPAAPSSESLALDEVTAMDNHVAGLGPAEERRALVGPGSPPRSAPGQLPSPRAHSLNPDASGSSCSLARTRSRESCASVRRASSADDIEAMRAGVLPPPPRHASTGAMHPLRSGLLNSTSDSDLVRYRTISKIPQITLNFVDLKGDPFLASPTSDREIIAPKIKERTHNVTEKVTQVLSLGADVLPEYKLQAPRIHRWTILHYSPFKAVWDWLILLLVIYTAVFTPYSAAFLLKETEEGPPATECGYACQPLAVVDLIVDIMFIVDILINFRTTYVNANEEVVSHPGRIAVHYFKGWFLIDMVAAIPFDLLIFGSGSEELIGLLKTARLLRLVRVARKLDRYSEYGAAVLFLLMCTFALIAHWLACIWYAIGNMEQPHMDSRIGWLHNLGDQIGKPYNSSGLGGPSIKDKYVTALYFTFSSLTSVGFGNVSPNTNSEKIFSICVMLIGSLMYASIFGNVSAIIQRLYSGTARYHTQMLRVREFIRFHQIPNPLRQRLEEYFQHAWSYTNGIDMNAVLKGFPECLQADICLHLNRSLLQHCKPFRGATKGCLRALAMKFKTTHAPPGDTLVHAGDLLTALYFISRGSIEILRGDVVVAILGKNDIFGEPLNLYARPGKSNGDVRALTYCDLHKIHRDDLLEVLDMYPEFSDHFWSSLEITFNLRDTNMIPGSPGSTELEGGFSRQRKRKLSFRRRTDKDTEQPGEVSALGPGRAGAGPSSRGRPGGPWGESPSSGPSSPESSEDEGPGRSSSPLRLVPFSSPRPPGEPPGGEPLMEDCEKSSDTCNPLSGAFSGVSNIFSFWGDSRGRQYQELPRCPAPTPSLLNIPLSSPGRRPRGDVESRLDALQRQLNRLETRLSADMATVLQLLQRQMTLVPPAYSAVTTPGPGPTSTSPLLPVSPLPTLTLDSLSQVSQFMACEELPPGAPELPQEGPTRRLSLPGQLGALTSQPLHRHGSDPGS
assay: Inhibition of human ERG by whole cell patch-clamp assay
Below, each entry is listed alongside its reported pIC50.
Please keep in mind that pIC50 is minus log10 of the molar concentration; only the number is needed.

A selection of reference data follows.
> print(dat)
                                   molecule                        experimentalsystem  quantitykind  testvalue
1  CCOc1ccc(NC(=O)C(C)C)cc1C(=O)NC(C)c1cccc(C)c1 (stereo not drawn)  Voltage-gated inwardly rectifying potassium channel KCNH2 (Homo sapiens, UniProt Q12809)         pIC50       4.52
2  CC(C)C(=O)Nc1ccc(N(C)C)c(C(=O)NCc2ccccn2)c1  Voltage-gated inwardly rectifying potassium channel KCNH2 (Homo sapiens, UniProt Q12809)         pIC50       4.52
3  CCOc1ccc(NC(=O)C(C)C)cc1C(=O)NC(C)c1cccc(NC)c1 (stereo not drawn)  Voltage-gated inwardly rectifying potassium channel KCNH2 (Homo sapiens, UniProt Q12809)         pIC50       4.52
4  CCOc1ccc(NC(=O)C(C)C)cc1C(=O)NCc1cccc(OC(F)F)c1  Voltage-gated inwardly rectifying potassium channel KCNH2 (Homo sapiens, UniProt Q12809)         pIC50       4.52
5  CCOc1ccc(NC(=O)C(C)C)cc1C(=O)NC(C)c1cccc(OC(F)F)c1 (stereo not drawn)  Voltage-gated inwardly rectifying potassium channel KCNH2 (Homo sapiens, UniProt Q12809)         pIC50       5.00

Consider the record given below.
-- ask Find the recorded pIC50 belonging to "CC(C)C(=O)Nc1ccc(N(C)C)c(C(=O)NCc2cccc(-c3nccs3)c2)c1" and report it.
-- reply 4.52
